Values from ChEMBL document CHEMBL4261601

I'd appreciate it if you could supply IC50 values for the items below.
system: MV4-11; experiment: Cytotoxicity against human MV411 cells after 72 hrs by CellTiter-Glo assay; assay type: functional, cell-based; conditions: MV4-11, 72 h
Answers are plain numbers, in µM.

Worked examples, 2 compounds total:
compound_structure=Cc1noc(C)c1-c1ccc2nc(N3CCN(CCN(C)C)CC3)nc(NCc3cccc(Cl)c3)c2c1 readout_type=IC50 data_value=0.66
compound_structure=Cc1noc(C)c1-c1ccc2nc(-n3cc(CCO)cn3)nc(NCc3cccc(Cl)c3)c2c1 readout_type=IC50 data_value=3.08

For each listed entry, give its IC50.
1. CN(C)CCN1CCN(c2nc(NCc3cccc(Cl)c3)c3cc(-c4ccc(O)nc4)ccc3n2)CC1
2. CNc1nc(NCc2cccc(Cl)c2)c2cc(-c3c(C)noc3C)ccc2n1

RESULT:
6.07
3.59

====

I'd appreciate it if you could supply Kd values for the items below.
molecular target: Bromodomain-containing protein 4 (Homo sapiens); test: Displacement of biotinylated acetylated peptide from recombinant human partial length BRD4 long isoform bromodomain 1/2 (N44 to E460 residues) expressed in Escherichia coli BL21 measured after 1 hr by Bromoscan method
Answers are plain numbers, in nM.

For each listed entry, give its Kd.
1. Cc1noc(C)c1-c1ccc2nc(-c3cnn(CCO)c3)nc(N3CCOCC3c3ccccc3)c2c1 (stereo not drawn)
2. CN(C)CCN1CCN(c2nc(NCc3cccc(Cl)c3)c3cc(-c4ccc(=O)n(C)c4)ccc3n2)CC1
3. Cc1noc(C)c1-c1ccc2nc(N3CCN(CCN(C)C)CC3)nc(NCc3ccccc3Cl)c2c1

RESULT:
66
44
85

====

tested on: MV4-11; assay: Cytotoxicity against human MV411 cells after 72 hrs by CellTiter-Glo assay; type: functional, cell-based; conditions: MV4-11, 72 h
readout.type: IC50
Report field: quantity (unit follows the number).

Worked examples, 2 compounds total:
compound_structure=COCCn1cc(-c2nc(NCc3cccc(Cl)c3)c3cc(-c4c(C)noc4C)ccc3n2)cn1 readout_type=IC50 data_value="1.87 µM"
compound_structure=Cc1noc(C)c1-c1ccc2nc(-c3cnn(CC(N)=O)c3)nc(NCc3cccc(Cl)c3)c2c1 readout_type=IC50 data_value="0.66 µM"

For each listed entry, give its IC50.
1. Cc1nocc1-c1ccc2nc(N3CCN(CCN(C)C)CC3)nc(NCc3cccc(Cl)c3)c2c1
2. Cc1noc(C)c1-c1ccc2nc(N3CCN(CC(=O)N(C)C)CC3)nc(NCc3cccc(Cl)c3)c2c1

RESULT:
2.97 µM
1.73 µM
